Measured values drawn from patent US9657081B2 for this set.

# Test system: TREM-1
# measurement.protocol: Rat model of sepsis-induced cardiac dysfunction, intrinsic cardiac function by Millar catheter
# Type: in vivo
# Parameters: unit not given here
attribute.measured: ESPVR
Please give the numeric answer without any surrounding text.

Asked: Fill in the blank: the reported ESPVR of LQVEDSGLYQCVIYQPP (listed as Homo sapiens) [TREM1-LP17] is ____.
Given back: 2.7

Asked: Fill in the blank: the reported ESPVR of EDAGEY (listed as Homo sapiens) [TLT1-LR6-2] is ____.
Given back: 2.3

Asked: Fill in the blank: the reported ESPVR of LQEEDAGEYGCMVDGAR (listed as Homo sapiens) [TLT1-LR17] is ____.
Given back: 2.5

Asked: Fill in the blank: the reported ESPVR of LQVEDSGLYQCV (listed as Homo sapiens) [TREM1-LP12] is ____.
Given back: 2.8

Asked: Fill in the blank: the reported ESPVR of GEYGCM (listed as Homo sapiens) [TLT-1LR6-3] is ____.
Given back: 2.2

Asked: Fill in the blank: the reported ESPVR of LQEEDA (listed as Homo sapiens) [TLT1-LR6-1] is ____.
Given back: 2.9

Asked: Fill in the blank: the reported ESPVR of GLYQCV (listed as Homo sapiens) [TREM1-LP6-3] is ____.
Given back: 2.9

Asked: Fill in the blank: the reported ESPVR of LQVEDS (listed as Homo sapiens) [TREM1-LP6-1] is ____.
Given back: 2.5

Asked: Fill in the blank: the reported ESPVR of ELMEGGQECADY (synthetic peptide scramble) [TLT-1-LR12scr, reference compound] is ____.
Given back: 1.6

Asked: Fill in the blank: the reported ESPVR of EDSGLY (listed as Homo sapiens) [TREM1-LP6-2] is ____.
Given back: 2.7

Asked: Fill in the blank: the reported ESPVR of LQEEDAGEYGCM (listed as Homo sapiens) [TLT1-LR12] is ____.
Given back: 2.7
